molecular target: HDM2 (Homo sapiens); construct: Thioredoxin (N); made in house; host or cells: E. coli strain BL21(DE3)Rosetta; assay: HDM2 FRET assay (inhibition of binding of FITC labeled p53-pocket peptide to HDM2); settings: Table 11; read-out: FRET IC50
quantity: log10 of IC50 (log10 of the value in nM)
Heads up, the numbers here are log10 of IC50 in nM units.

// query log10 of IC50 value for entry C[C@@H](Nc1nc(-c2n[nH]c(=O)o2)nc2nc(N3CCO[C@H]4CCCC[C@H]43)n(C[C@H]3CC[C@H](C)CC3)c12)C1CCC1 (single isomer, unassigned) [Example 11.161]
1.47

Looking for the measured log10 of IC50 of CC(Nc1nc2nc(-c3noc(=O)[nH]3)nc(N[C@H](C)C3CCC3)c2n1C[C@H]1CC[C@H](C)CC1)c1cncnc1 (some centres unmarked) [Example 11.85] , can you help?
0.70

Any idea what log10 of IC50 was measured for C[C@@H](Nc1nc(-c2noc(=O)[nH]2)nc2nc(NC(CO)c3ccccc3)n(C[C@H]3CC[C@H](C)CC3)c12)C1CCC1 (single isomer, unassigned) [Example 11.122] ?
0.62

May I ask what log10 of IC50 has been recorded for C[C@@H](Nc1nc(-c2noc(=O)[nH]2)nc2nc(N3CCCC3C[S+](C)[O-])n(C[C@H]3CC[C@H](C)CC3)c12)C1CCC1 (single isomer, unassigned) [Example 11.155] ?
2.22

Form field: reported log10 of IC50 of CC(Nc1nc2nc(-c3noc(=O)[nH]3)nc(N[C@H](C)C3CCC3)c2n1C[C@H]1CC[C@H](C)CC1)c1ccno1 (some centres unmarked) [Example 11.87]
2.02

----------
Please respond with reported pIC50 for every item in the list.
biological target: HDM2 (Homo sapiens, UniProt Q00987); construct: Thioredoxin (N); made in house; host or cells: E. coli strain BL21(DE3)Rosetta; experiment: HDM2 FRET assay (inhibition of binding of FITC labeled p53-pocket peptide to HDM2); conditions: Table 10; read-out: FRET IC50
Sequence (Q00987 17-125): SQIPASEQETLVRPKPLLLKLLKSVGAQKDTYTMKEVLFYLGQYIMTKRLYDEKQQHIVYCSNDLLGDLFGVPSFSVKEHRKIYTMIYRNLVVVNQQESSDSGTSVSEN
Convention used: pIC50 is expressed as -log10 of the molar concentration.

Consider the compound shown here: C[C@@H](Nc1nc(C(=O)O)nc2nc(CN(C)Cc3ccccc3)n(Cc3ccc(C(F)(F)F)cc3)c12)C1CCC1 [Example 10.13] What is its recorded pIC50?
7.32

# lookup: pIC50 of CC(C)CNC(=O)c1nc2nc(C(=O)O)nc(N[C@H](C)C3CCC3)c2n1Cc1ccc(C(F)(F)F)cc1 [Example 10.16]
7.43

Reported pIC50 for CC(c1nc2nc(C(=O)O)nc(N[C@H](C)C3CCC3)c2n1Cc1ccc(C(F)(F)F)cc1)N(C)C1CCCCC1 (stereo partly shown) [Example 10.11] : what is it?
7.66

Fill blank: measured pIC50 of the compound CC(c1nc2nc(C(=O)O)nc(N[C@H](C)C3CCC3)c2n1Cc1ccc(C(F)(F)F)cc1)N(C)Cc1ccccc1 (stereo partly shown) [Example 10.12] is ____.
6.86

----------
molecular target: HDM2 (Homo sapiens, UniProt Q00987); construct: Thioredoxin (N); made in house; host or cells: E. coli strain BL21(DE3)Rosetta; assay: HDM2 FRET assay (inhibition of binding of FITC labeled p53-pocket peptide to HDM2); settings: 0.5 nM HDM2 (residues 17 to 125), 3nM peptide, two hour incubation at room temperature; read-out: FRET IC50
Sorting guide: entries reporting IC50 beneath 10 nM go in the TRUE pile, the rest go in the FALSE pile.

# TODO verify IC50 < 10 nM strictly for this compound: CC(=O)c1nc(N[C@H](C)C2CCC2)c2c(n1)nc(-c1cc(C(C)C)ccn1)n2C[C@H]1CC[C@H](C)CC1
FALSE

Does the reported IC50 of the following compound sit strictly below 10 nM? C[C@@H]1COC[C@@H](C)N1c1nc2nc(-c3n[nH]c(=O)o3)nc(-c3cccc(Cl)c3)c2n1C[C@H]1CC[C@H](C)CC1
TRUE

Lab log: compare recorded IC50 with 10 nM; is it strictly lower for C[C@@H]1COCCN1c1nc2nc(-c3noc(=O)[nH]3)nc(-c3cccc(Cl)c3)c2n1C[C@H]1CC[C@H](C)CC1 ?
TRUE

Given CN(Cc1ccccc1)c1nc2nc(-c3n[nH]c(=O)o3)nc(-c3cccc(Cl)c3)c2n1C[C@H]1CC[C@H](C)CC1 , is recorded IC50 strictly lower than 10 nM?
FALSE

Does the reported IC50 of CC1CCCC(c2nc(-c3n[nH]c(=O)o3)nc3nc(N4CCOC[C@H]4c4ccccc4)n(C[C@H]4CC[C@H](C)CC4)c23)C1 (stereo partly shown) stay below 10 nM?
TRUE

Check if IC50 falls below 10 nM for C[C@@H](Nc1nc(C(=O)O)nc2nc(-c3cc(C4CCC4)ccn3)n(C[C@H]3CC[C@H](C)CC3)c12)C1CCC1 .
TRUE

Item C[C@@H](Nc1nc(N2CCC[C@]2(C)C(=O)O)nc2nc(N3CCOC[C@H]3c3ccccc3)n(C[C@H]3CC[C@H](C)CC3)c12)C1CCC1 : IC50 beneath 10 nM, strictly?
FALSE

Dear reviewer, please state whether C[C@@H](Nc1nc(N(C)CC(=O)O)nc2nc(N3CCOC[C@H]3c3ccccc3)n(C[C@H]3CC[C@H](C)CC3)c12)C1CCC1 has IC50 strictly beneath 10 nM.
FALSE

Quick check: IC50 of CC1(C)COCCN1c1nc2nc(-c3noc(=O)[nH]3)nc(-c3cccc(Cl)c3)c2n1C[C@H]1CC[C@H](C)CC1 under 10 nM?
TRUE

Lab log: compare recorded IC50 with 10 nM; is it strictly lower for CC(=O)c1nc(N[C@H](C)C2CCC2)c2c(n1)nc(N1CCOC[C@H]1c1ccccc1)n2C[C@H]1CC[C@H](C)CC1 [Example 12.21] ?
FALSE

IC50 under 10 nM? Item: CCc1cccc(-c2nc(-c3noc(=O)[nH]3)nc3nc(N4CCOC[C@H]4c4ccccc4)n(C[C@H]4CC[C@H](C)CC4)c23)c1
TRUE

Strictly below 10 nM: is that where IC50 of C[C@H]1CC[C@H](Cn2c(N3CCOCC3)nc3nc(-c4noc(=O)[nH]4)nc(-c4cccc(Cl)c4)c32)CC1 sits?
FALSE

Given the entry CC(C)c1ccnc(-c2nc3nc(CO)nc(N[C@H](C)C4CCC4)c3n2C[C@H]2CC[C@H](C)CC2)c1 , would its reported IC50 be below 10 nM?
FALSE

Problem: For the compound C[C@H]1CC[C@H](Cn2c(N3CCC[C@H]3C(F)(F)F)nc3nc(-c4noc(=O)[nH]4)nc(-c4cncc(Cl)c4)c32)CC1 , is IC50 under 10 nM?
TRUE

Threshold test, IC50 < 10 nM: C[C@H]1CC[C@H](Cn2c(N3CCOC[C@H]3c3ccncc3)nc3nc(-c4noc(=O)[nH]4)nc(-c4cccc(Cl)c4)c32)CC1
TRUE

Answer whether the compound Cc1cccc(-c2nc3nc(C(=O)NS(C)(=O)=O)nc(N[C@H](C)C4CC4)c3n2Cc2ccc(C(F)(F)F)cc2)c1 has IC50 strictly less than 10 nM
FALSE

Regarding C[C@@H](Nc1nc(S(=O)(=O)CCO)nc2nc(N3CCOC[C@H]3c3ccccc3)n(C[C@H]3CC[C@H](C)CC3)c12)C1CCC1 , kindly confirm whether its IC50 is beneath 10 nM.
TRUE

Bench note: check whether CC(C)c1cc(-c2nc3nc(-c4noc(=O)[nH]4)nc(N[C@H](C)C4CCC4)c3n2C[C@H]2CC[C@H](C)CC2)[nH]c(=O)c1 shows IC50 below 10 nM
TRUE

Attribution: patent EP2951180B1
